Reported MIC is given for each of the following compounds.
Tested on: Diplococcus pneumoniae L 54
Test: MIC, agar serial dilution test
Assay type: cell-based
Details: Streptococcus pneumoniae, L54, 24 h

# compound, subject of test, value unit, MIC
records = [
    ("CC1=C(C(=O)O)N2C(=O)[C@@H](NC(=O)[C@H](N)c3ccccc3)[C@H]2SC1 [Cephalexine, Cephalexin, reference compound]", "Diplococcus pneumoniae L 54", "µg/mL", 3),
    ("CC(=O)OCC1=C(C(=O)[O-])N2C(=O)C(NC(=O)Cc3onc(C)c3Cl)[C@H]2SC1.[Na+] (stereo partly shown)", "Diplococcus pneumoniae L 54", "µg/mL", 1),
    ("CC(=O)OCC1=C(C(=O)O)N2C(=O)[C@@H](NC(=O)Cc3cccs3)[C@H]2SC1 [Cephalotin, reference compound]", "Diplococcus pneumoniae L 54", "µg/mL", 0.25),
    ("O=C(Cc1cccs1)N[C@@H]1C(=O)N2C(C(=O)[O-])=C(C[n+]3ccccc3)CS[C@H]12 [Cephaloridine, Cephaloridin, reference compound]", "Diplococcus pneumoniae L 54", "µg/mL", 0.015),
]

----------
Tested on: Salmonella typhi murium R 172
Assay: in vivo infection test in mice
Conditions: Salmonella enterica, in Mus musculus, ip
reported endpoint: ED50

# molecule, measured value
measured = [
    ("CC(=O)OCC1=C(C(=O)O)N2C(=O)C(NC(=O)Cc3cc(-c4c(Cl)cccc4Cl)no3)C2SC1 (centres unmarked)", "~200 mg/kg"),
    ("CC(=O)OCC1=C(C(=O)O)N2C(=O)C(NC(=O)Cc3cc(-c4c(C)cc(C)cc4C)no3)C2SC1 (centres unmarked)", "> 215 mg/kg"),
    ("CC1=C(C(=O)O)N2C(=O)C(NC(=O)Cc3cc(-c4c(Cl)cccc4Cl)no3)C2SC1 (centres unmarked)", "> 215 mg/kg"),
    ("CC(=O)OCC1=C(C(=O)O)N2C(=O)[C@@H](NC(=O)Cc3cccs3)[C@H]2SC1 [Cephalotin, reference compound]", "79.4 mg/kg"),
    ("CC1(C)SC2C(NC(=O)Cc3cc(-c4c(Cl)cccc4Cl)no3)C(=O)N2C1C(=O)O (centres unmarked)", "> 215 mg/kg"),
]

----------
// Staphylococcus aureus A355 (penicillinase-producing) log10 of MIC records
reported endpoint: log10 of MIC (log10 of the value in µg/mL)

# compound, log10 of MIC
data = [
    ("CC1=C(C(=O)O)N2C(=O)C(NC(=O)Cc3onc(-c4c(Cl)cccc4Cl)c3C)C2SC1 (stereo not shown) [VIII]", 0.48),
    ("CC1=C(C(=O)O)N2C(=O)C(NC(=O)Cc3onc(-c4c(C)cc(C)cc4C)c3C)C2SC1 (stereo not shown) [XIII]", 0.78),
    ("Cc1cc(CC(=O)NC2C(=O)N3[C@@H]2SC(C)(C)[C@@H]3C(=O)O)on1 (stereo partly shown) [Example XXI]", 0.78),
    ("O=C(Cc1cccs1)N[C@@H]1C(=O)N2C(C(=O)[O-])=C(C[n+]3ccccc3)CS[C@H]12 [Cephaloridine, Cephaloridin, reference compound]", -0.92),
    ("Cc1cc(C)c(-c2cc(C(Cl)C(=O)NC3C(=O)N4C3SC(C)(C)C4C(=O)O)on2)c(C)c1 (stereo not shown) [Example IX]", 1.40),
    ("CCOc1ccc2ccccc2c1C(=O)N[C@@H]1C(=O)N2[C@@H]1SC(C)(C)[C@@H]2C(=O)O [Nafcilline, Nafcillin, reference compound]", 0.00),
    ("Cc1onc(-c2c(Cl)cccc2Cl)c1C(=O)N[C@@H]1C(=O)N2[C@@H]1SC(C)(C)[C@@H]2C(=O)O [Dicloxacillin, reference compound]", -0.30),
]

----------
System: Staphylococcus aureus A55
Assay: MIC, agar serial dilution test
Type: cell-based
Details: Staphylococcus aureus, A55, 24 h
# MIC values compiled below

# molecule, MIC [µg/mL]
measured = [
    ("CC1=C(C(=O)O)N2C(=O)[C@@H](NC(=O)[C@H](N)c3ccccc3)[C@H]2SC1 [Cephalexine, Cephalexin, reference compound]", 3),
    ("CC(=O)OCC1=C(C(=O)O)N2C(=O)[C@@H](NC(=O)Cc3cccs3)[C@H]2SC1 [Cephalotin, reference compound]", 0.25),
    ("O=C(Cc1cccs1)N[C@@H]1C(=O)N2C(C(=O)[O-])=C(C[n+]3ccccc3)CS[C@H]12 [Cephaloridine, Cephaloridin, reference compound]", 0.06),
    ("CC(=O)OCC1=C(C(=O)[O-])N2C(=O)C(NC(=O)Cc3onc(C)c3Cl)[C@H]2SC1.[Na+] (stereo partly shown)", 0.25),
]

----------
Experiment: blood (serum) contents after intramuscular administration in rabbits
Assay type: in vivo, rabbits (Nieuw Zeelander)
Settings: rabbit, im, after 4 hrs., 50 mg/kg intramuscular, average, read-out: Serum level

# molecule, concentration at 4 h
data = [
    ("CC(=O)OCC1=C(C(=O)O)N2C(=O)[C@@H](NC(=O)Cc3cccs3)[C@H]2SC1 [Cephalotin, reference compound]", "< 1000 ng/mL"),
    ("CC(=O)OCC1=C(C(=O)O)N2C(=O)C(NC(=O)Cc3cc(C)no3)C2SC1 (centres unmarked)", "< 1000 ng/mL"),
]

----------
Test system: Brucella melitensis A488
Assay: microbe, parasite or virus in culture
Assay type: cell-based
Conditions: A488, 24 h
reported endpoint: MIC (µg/mL)

# compound, reported endpoint, value unit, relation operator, measured value
rows = [
    ("CC(=O)OCC1=C(C(=O)O)N2C(=O)C(NC(=O)Cc3cc(-c4c(Cl)cccc4Cl)no3)C2SC1 (stereo not shown)", "MIC", "µg/mL", "=", 1),
    ("CC1=C(C(=O)O)N2C(=O)C(NC(=O)Cc3onc(-c4c(C)cc(C)cc4C)c3C)C2SC1 (stereo not shown)", "MIC", "µg/mL", ">", 100),
    ("CC(=O)OCC1=C(C(=O)[O-])N2C(=O)C(NC(=O)Cc3onc(C)c3Cl)[C@H]2SC1.[Na+] (stereo partly shown)", "MIC", "µg/mL", "=", 0.06),
    ("CC1=C(C(=O)O)N2C(=O)C(NC(=O)Cc3cc(-c4c(Cl)cccc4Cl)no3)C2SC1 (stereo not shown)", "MIC", "µg/mL", "=", 12.5),
    ("Cc1cc(C)c(-c2cc(C(Cl)C(=O)NC3C(=O)N4C3SC(C)(C)C4C(=O)O)on2)c(C)c1 (stereo not shown)", "MIC", "µg/mL", "=", 25),
    ("CC1(C)SC2C(NC(=O)Cc3cc(-c4ccc([N+](=O)[O-])cc4)no3)C(=O)N2C1C(=O)O (stereo not shown)", "MIC", "µg/mL", "=", 0.12),
    ("CC1(C)SC2C(NC(=O)Cc3onc(-c4c(Cl)cccc4Cl)c3C(N)=O)C(=O)N2C1C(=O)O (stereo not shown)", "MIC", "µg/mL", "=", 50),
    ("CC(=O)OCC1=C(C(=O)O)N2C(=O)C(NC(=O)Cc3onc(-c4c(C)cc(C)cc4C)c3C)C2SC1 (stereo not shown)", "MIC", "µg/mL", "=", 50),
    ("Cc1c(-c2c(Cl)cccc2Cl)noc1CC(=O)NC1C(=O)N2C1SC(C)(C)C2C(=O)O (stereo not shown)", "MIC", "µg/mL", "=", 3),
    ("CC1(C)SC2C(NC(=O)Cc3onc(-c4c(Cl)cccc4Cl)c3C#N)C(=O)N2C1C(=O)O (stereo not shown)", "MIC", "µg/mL", "=", 6),
    ("Cc1cc(C)c(-c2cc(C(C)C(=O)NC3C(=O)N4C3SC(C)(C)C4C(=O)O)on2)c(C)c1 (stereo not shown)", "MIC", "µg/mL", "=", 3),
    ("CC1(C)SC2C(NC(=O)Cc3cc(-c4c(Cl)cccc4Cl)no3)C(=O)N2C1C(=O)O (stereo not shown)", "MIC", "µg/mL", "=", 0.5),
    ("Cc1onc(-c2c(Cl)cccc2Cl)c1C(=O)N[C@@H]1C(=O)N2[C@@H]1SC(C)(C)[C@@H]2C(=O)O [Dicloxacillin, reference compound]", "MIC", "µg/mL", ">", 100),
    ("CC1=C(C(=O)O)N2C(=O)[C@@H](NC(=O)[C@H](N)c3ccccc3)[C@H]2SC1 [Cephalexine, Cephalexin, reference compound]", "MIC", "µg/mL", "=", 6),
    ("CC1=C(C(=O)O)N2C(=O)C(NC(=O)Cc3onc(-c4c(Cl)cccc4Cl)c3C)C2SC1 (stereo not shown)", "MIC", "µg/mL", "=", 12.5),
    ("CC1(C)SC2C(NC(=O)C(N)c3cc(-c4c(Cl)cccc4Cl)no3)C(=O)N2C1C(=O)O (stereo not shown)", "MIC", "µg/mL", "=", 0.5),
    ("Cc1cc(C)c(-c2cc(CC(=O)NC3C(=O)N4C3SC(C)(C)C4C(=O)O)on2)c(C)c1 (stereo not shown)", "MIC", "µg/mL", "=", 3),
    ("Cc1cc(CC(=O)NC2C(=O)N3[C@@H]2SC(C)(C)[C@@H]3C(=O)O)on1 (stereo partly shown)", "MIC", "µg/mL", "=", 3),
    ("CC1(C)SC2C(NC(=O)Cc3cc(C45CC6CC(CC(C6)C4)C5)no3)C(=O)N2C1C(=O)O (stereo not shown)", "MIC", "µg/mL", "=", 3),
    ("CC1(C)SC2C(NC(=O)C(C(N)=O)c3cc(-c4c(Cl)cccc4Cl)no3)C(=O)N2C1C(=O)O (stereo not shown)", "MIC", "µg/mL", "=", 3),
    ("CC(=O)OCC1=C(C(=O)O)N2C(=O)C(NC(=O)Cc3cc(C)no3)C2SC1 (stereo not shown)", "MIC", "µg/mL", "=", 12.5),
    ("CCOc1ccc2ccccc2c1C(=O)N[C@@H]1C(=O)N2[C@@H]1SC(C)(C)[C@@H]2C(=O)O [Nafcilline, Nafcillin, reference compound]", "MIC", "µg/mL", "=", 6),
    ("Cc1onc(-c2ccccc2Cl)c1C(=O)N[C@@H]1C(=O)N2[C@@H]1SC(C)(C)[C@@H]2C(=O)O [Cloxazilline, Cloxacillin, reference compound]", "MIC", "µg/mL", "=", 100),
    ("CC1(C)S[C@@H]2C(NC(=O)Cc3onc(-c4c(Cl)cccc4Cl)c3C(=O)O)C(=O)N2[C@H]1C(=O)O (stereo partly shown)", "MIC", "µg/mL", "=", 25),
    ("CC1(C)SC2C(NC(=O)C(NC(=O)OCc3ccc([N+](=O)[O-])cc3)c3cc(-c4c(Cl)cccc4Cl)no3)C(=O)N2C1C(=O)O (stereo not shown)", "MIC", "µg/mL", "=", 25),
    ("CC(=O)OCC1=C(C(=O)O)N2C(=O)[C@@H](NC(=O)Cc3cccs3)[C@H]2SC1 [Cephalotin, reference compound]", "MIC", "µg/mL", "=", 6),
    ("CC(=O)OCC1=C(C(=O)O)N2C(=O)C(NC(=O)Cc3cc(-c4c(C)cc(C)cc4C)no3)C2SC1 (stereo not shown)", "MIC", "µg/mL", "=", 12.5),
    ("O=C(Cc1cccs1)N[C@@H]1C(=O)N2C(C(=O)[O-])=C(C[n+]3ccccc3)CS[C@H]12 [Cephaloridine, Cephaloridin, reference compound]", "MIC", "µg/mL", "=", 3),
]
